target: HLA-A*02:01 (Homo sapiens, UniProt P04439, D140Y/D185E/D98H/E176V/E277Q/G131W/G231S/I119V/I121R/I166T/I218V/L300P/L318F/N151K/N90K/P208A/P217A/Q86G/Q94H/R138H/R169H/T345S); assay: MHC binding assay (UV-ligand exchange, beta2m ELISA, peptide exchange yield); settings: binding of HLA-class I restricted peptides to HLA-A*02:01, ranged by peptide exchange yield (UV-ligand exchange, β2m ELISA)
QUANTITY KIND: Peptide exchange

> print(dat)
                                  substance          test.value
1  184 (YLMDINGKMWL; listed as Homo sapiens) [compound 184]  ″+++″ (≥50% = +++)
2  493 (GLLGEKTQDLIGV; listed as Homo sapiens) [compound 493]  ″+++″ (≥50% = +++)
